# experiment notes: Evaluation of solubility in Japanese Pharmacopoeia test fluids
# Type: physicochemical
# condition summary: Japanese Pharmacopoeia test fluids, thermodynamic from solid; text summary of Table 5, 37° C.; read-out: solubilities
# Protocol: Form A crystal of compound (I) (100 mg) was weighed into a borosilicate glass vial, and the 1st fluid for disintegration test/1st fluid for dissolution test of the Japanese Pharmacopoeia 16th edition (pH 1.2)(1 mL) or the 2nd fluid for disintegration test of the Japanese Pharmacopoeia 16th edition (pH 6.8)(1 mL) was added in a temperature and humidity test chamber (Amefrec Co., Ltd.; NO DOORα) adjusted to 37° C., followed by stirring. […]
endpoint label: solubility at 30 min

If you can, please state the reported solubility at 30 min value of CN(C)C1CCN(C(=O)C[C@H](O)c2nccn2C)CC1 [Form A crystal] .
≥ 100 mg/mL

* * *

# experiment notes: Evaluation of solubility in Japanese Pharmacopoeia test fluids
# Assay type: physicochemical
# condition summary: aqueous buffer, thermodynamic from solid; 2nd fluid for disintegration test of the Japanese Pharmacopoeia 16th edition (pH 6.8), 37° C., 30 minutes; read-out: Solubility (37° C.)
endpoint label: solubility at 30 min

If you can, please state the reported solubility at 30 min value of CN(C)C1CCN(C(=O)C[C@H](O)c2nccn2C)CC1 [Form B crystal of ethane disulfonate] .
> 100 mg/mL

Taken from patent US11834431B2.
